Experiment: Solvent solubility screen by solvent addition technique
Assay type: physicochemical
Settings: 40 °C, organic solvent or mixture, thermodynamic from solid; Dimethylsulfoxide; amorphous input; read-out: Solubility (mg/mL) at 40° C.
Counter-ions that a name gives are not always drawn.
property_name: solubility

- compound: "Nc1ncccc1-c1nc2ccc(-c3ccccc3)nc2n1-c1ccc(C2(N)CCC2)cc1 [Compound A bis-mesylate salt]"
  reported_measurement: "~126 mg/mL"

----------
Test: Stability testing of bis-mesylate forms for 1 week (XRPD, HPLC purity)
Format: physicochemical
Settings: 80° C.
property_name: polymorphic form after stability test (XRPD)

- compound: "Nc1ncccc1-c1nc2ccc(-c3ccccc3)nc2n1-c1ccc(C2(N)CCC2)cc1 [Form C]"
  reported_measurement: "No change"
- compound: "Nc1ncccc1-c1nc2ccc(-c3ccccc3)nc2n1-c1ccc(C2(N)CCC2)cc1 [Form A]"
  reported_measurement: "No change"
- compound: "Nc1ncccc1-c1nc2ccc(-c3ccccc3)nc2n1-c1ccc(C2(N)CCC2)cc1 [Form D]"
  reported_measurement: "Form I"
- compound: "Nc1ncccc1-c1nc2ccc(-c3ccccc3)nc2n1-c1ccc(C2(N)CCC2)cc1 [Form B]"
  reported_measurement: "Form I"
